B1: FBXO34 (parent)
chain: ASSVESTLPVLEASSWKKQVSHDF

Variants of: B1
Experiment: protein stability index of a GFP-peptide fusion (GPS, HEK-293T) (PSI 1-6); higher = more stable;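 also: lentivirally expressed fusions sorted by FACS into six bins by GFP to DsRed ratio, PSI derived from sequencing read proportions per bin multiplied by bin number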
Conditions: c terminus: a fixed tail appended
So basically: protein stability index at 3 or higher? That is satisfied. Lower than 3? That is not satisfied.

Below, 3 variants whose answers are already recorded.
>  <sequence.variant>
E5I

>  <group>
not satisfied

$$$$
>  <sequence.variant>
H22K

>  <group>
satisfied

$$$$
>  <sequence.variant>
L8K

>  <group>
satisfied

$$$$

Query variant follows.
Task: Does protein stability index meet or surpass 3 for H22M ?
Output: not satisfied
